Assignment: determine reported EC50 (nM) at glucagon receptor for the given binders.
target.of.assay: glucagon receptor
measurement.protocol: cell-based or functional assay
Numbered stars: 1 amine (or outer) side, 2 acyl side, 3 side chain; on linkers, the order of the positions; unused ones are H or OH. Square brackets hold non-standard residues; d marks the D form. Primed or numbered codes have the meaning given here. Side chains are listed from the residue outwards. Ends that are not written are not given here. * marks the point of attachment. 40K‑TE PEG = 40 kDa PEG covalently bound via thioether, formed by reaction of the free thiol of the peptide (Cys side chain) with an iodoacetic-functionalized PEG; 40K‑TE PEG″ = 40 kDa PEG bound to Cys via thioether made from an iodoacetyl-functionalised PEG; γGlu = O=C(O)[C@H](CCC(=O)[*:2])N[*:1]; Palmitoyl = CCCCCCCCCCCCCCCC(=O)*; Aib = CC(C)(N)C(=O)O

Query block: Quick check: EC50 (nM) at glucagon receptor of H[Aib]QGTFTSDYSKYLDEKRA[Aib]EFVC(40K‑TE PEG)WLLDGGPSSGAPPPS-NH2 [peptide of SEQ ID NO: 47] ?
Result block: 0.591 nM

Query block: Item under review: H[Aib]QGTFTSDK([γGlu-Palmitoyl])SKYLD[Aib]RAAQDFVQWLMKTK[dE]-OH [peptide of SEQ ID NO: 60] . Reported EC50 (nM) at glucagon receptor?
Result block: 4.6 nM

Query block: Which EC50 (nM) at glucagon receptor value is on record for Ac-H[dS]QGTFTSDK([γGlu-Palmitoyl])SKYLDERAAQDFVQWLLDT-NH2 [peptide of SEQ ID NO: 21] ?
Result block: 0.005 nM

Query block: Need EC50 (nM) at glucagon receptor of H[Aib]QGTFTSDYSKYLDEKRA[Aib]EFVC(40K‑TE PEG″)WLLDE-NH2 [peptide of SEQ ID NO: 16] , thanks.
Result block: 0.563 nM

Query block: Can you share its EC50 (nM) at glucagon receptor? I mean this binder: H[Aib]QGTFTSDYSKYLDEKRA[Aib]EFVC(40K‑TE PEG)WLLDT-OH [peptide of SEQ ID NO: 45]
Result block: 0.651 nM

Query block: Quick one: EC50 (nM) at glucagon receptor for H[Aib]QGTFTSDYSKYLDEKRA[Aib]EFVC(40K‑TE PEG)WLMDT-NH2 [peptide of SEQ ID NO: 15] ?
Result block: 1.1 nM

Query block: Would you kindly share the measured EC50 (nM) at glucagon receptor for H[dS]QGTFTSDK([γGlu-Palmitoyl])SKYLDERAAQDFVQWLLKGRG-NH2 [peptide of SEQ ID NO: 27] ?
Result block: 0.022 nM
